assay_info: Single-dose, open-label pharmacokinetics of herombopag in subjects with normal liver function, mild and moderate hepatic impairments
Assay type: in vivo, human
condition_notes: human, plasma, po, 7.5 mg, single 7.5 mg oral dose, fasted; normal liver function group (n = 8); GeoMean (% CVb); read-out: AUC0-t
measurement_type: AUC(0-t) (µg·h/mL)
# value in µg·h/mL; strip the unit string

I have this compound here, CC1=NN(c2ccc3c(c2)CCCC3)C(=O)/C1=N\Nc1cccc(-c2ccc(C(=O)O)o2)c1O [herombopag] , and I need its recorded AUC(0-t).
0.874

----------
assay_info: Single-dose, open-label pharmacokinetics of herombopag in subjects with normal liver function, mild and moderate hepatic impairments
Assay type: in vivo, human
condition_notes: human, plasma, oral, 7.5 mg, geometric least squares mean; mild hepatic impairment group, n 8; read-out: AUC0-t GLSM
measurement_type: AUC(0-t) (ng·h/mL)
# value in ng·h/mL; strip the unit string

I have this compound here, "CC1=NN(c2ccc3c(c2)CCCC3)C(=O)/C1=N\Nc1cccc(-c2ccc(C(=O)O)o2)c1O" , and I need its recorded AUC(0-t).
1060

----------
assay_info: Single-dose, open-label pharmacokinetics of herombopag in subjects with normal liver function, mild and moderate hepatic impairments
Type: in vivo, human
condition_notes: human, plasma, oral, 7.5 mg, geometric least squares mean; mild hepatic impairment group, n 8; read-out: AUC0-∞ GLSM
measurement_type: AUC(0-inf) (ng·h/mL)
# value in ng·h/mL; strip the unit string

I have this molecule here, CC1=NN(c2ccc3c(c2)CCCC3)C(=O)/C1=N\Nc1cccc(-c2ccc(C(=O)O)o2)c1O [herombopag] , and I need its recorded AUC(0-inf).
1120

----------
assay_info: Single-dose, open-label pharmacokinetics of herombopag in subjects with normal liver function, mild and moderate hepatic impairments
Type: in vivo, human
condition_notes: human, plasma, oral, 7.5 mg, geometric least squares mean; normal liver function group, n 8; read-out: AUC0-∞ GLSM
measurement_type: AUC(0-inf) (µg·h/mL)
# value in µg·h/mL; strip the unit string

I have this molecule here, "CC1=NN(c2ccc3c(c2)CCCC3)C(=O)/C1=N\Nc1cccc(-c2ccc(C(=O)O)o2)c1O" , and I need its recorded AUC(0-inf).
0.929

----------
assay_info: Single-dose, open-label pharmacokinetics of herombopag in subjects with normal liver function, mild and moderate hepatic impairments
Format: in vivo, human
condition_notes: human, plasma, po, 7.5 mg, single 7.5 mg oral dose, fasted; mild hepatic impairment (n = 8); GeoMean (% CVb); read-out: Cmax
measurement_type: Cmax (ng/mL)
# value in ng/mL; strip the unit string

I have this compound here, CC1=NN(c2ccc3c(c2)CCCC3)C(=O)/C1=N\Nc1cccc(-c2ccc(C(=O)O)o2)c1O [herombopag] , and I need its recorded Cmax.
62.4

----------
assay_info: Single-dose, open-label pharmacokinetics of herombopag in subjects with normal liver function, mild and moderate hepatic impairments
Format: in vivo, human
condition_notes: human, plasma, oral, 7.5 mg, geometric least squares mean; normal liver function group, n 8; read-out: Cmax GLSM
Method: Example 1: Study of Pharmacokinetics and Safety of Trial Drug in Subjects with Mild Hepatic Impairments (Child-Pugh: Grade A), Moderate Hepatic Impairments (Child-Pugh: Grade B), and Normal Liver Function […] The severity of the hepatic functional impairments in the subjects was assessed using the Child-Pugh score (mild: grade A, a score of 5 or 6; moderate: grade B, a score of 7-9). […]
measurement_type: Cmax (ng/mL)
# value in ng/mL; strip the unit string

I have this compound here, "CC1=NN(c2ccc3c(c2)CCCC3)C(=O)/C1=N\Nc1cccc(-c2ccc(C(=O)O)o2)c1O" , and I need its recorded Cmax.
36.8

----------
assay_info: Single-dose, open-label pharmacokinetics of herombopag in subjects with normal liver function, mild and moderate hepatic impairments
Assay type: in vivo, human
condition_notes: human, plasma, po, 7.5 mg, single 7.5 mg oral dose, fasted; mild hepatic impairment (n = 8); Mean ± SD; read-out: t1/2 (converted)
measurement_type: half-life
Answer with the figure and its unit, nothing else.

I have this molecule here, "CC1=NN(c2ccc3c(c2)CCCC3)C(=O)/C1=N\Nc1cccc(-c2ccc(C(=O)O)o2)c1O" , and I need its recorded half-life.
32.2 h

----------
assay_info: Single-dose, open-label pharmacokinetics of herombopag in subjects with normal liver function, mild and moderate hepatic impairments
Type: in vivo, human
condition_notes: human, plasma, po, 7.5 mg, single 7.5 mg oral dose, empty stomach; normal liver function; read-out: median of Tmax
measurement_type: Tmax (h)
# value in h; strip the unit string

I have this compound here, CC1=NN(c2ccc3c(c2)CCCC3)C(=O)/C1=N\Nc1cccc(-c2ccc(C(=O)O)o2)c1O [herombopag] , and I need its recorded Tmax.
8

----------
assay_info: Single-dose, open-label pharmacokinetics of herombopag in subjects with normal liver function, mild and moderate hepatic impairments
Type: in vivo, human
condition_notes: human, plasma, po, 7.5 mg, single 7.5 mg oral dose, fasted; mild hepatic impairment (n = 8); GeoMean (% CVb); read-out: AUC0-t
measurement_type: AUC(0-t)
Answer with the figure and its unit, nothing else.

I have this compound here, "CC1=NN(c2ccc3c(c2)CCCC3)C(=O)/C1=N\Nc1cccc(-c2ccc(C(=O)O)o2)c1O" , and I need its recorded AUC(0-t).
1060 ng·h/mL

----------
assay_info: Single-dose, open-label pharmacokinetics of herombopag in subjects with normal liver function, mild and moderate hepatic impairments
Format: in vivo, human
condition_notes: human, plasma, po, 7.5 mg, single 7.5 mg oral dose, empty stomach; normal liver function; read-out: arithmetic mean of t1/2 (converted)
measurement_type: half-life (h)
# value in h; strip the unit string

I have this molecule here, CC1=NN(c2ccc3c(c2)CCCC3)C(=O)/C1=N\Nc1cccc(-c2ccc(C(=O)O)o2)c1O [herombopag] , and I need its recorded half-life.
34.6

----------
assay_info: Single-dose, open-label pharmacokinetics of herombopag in subjects with normal liver function, mild and moderate hepatic impairments
Format: in vivo, human
condition_notes: human, plasma, po, 7.5 mg, single 7.5 mg oral dose, fasted; mild hepatic impairment (n = 8); GeoMean (% CVb); read-out: AUC0-∞
measurement_type: AUC(0-inf) (ng·h/mL)
# value in ng·h/mL; strip the unit string

I have this molecule here, "CC1=NN(c2ccc3c(c2)CCCC3)C(=O)/C1=N\Nc1cccc(-c2ccc(C(=O)O)o2)c1O" , and I need its recorded AUC(0-inf).
1120

----------
assay_info: Single-dose, open-label pharmacokinetics of herombopag in subjects with normal liver function, mild and moderate hepatic impairments
Assay type: in vivo, human
condition_notes: human, plasma, po, 7.5 mg, single 7.5 mg oral dose, empty stomach; mild hepatic impairments (Child-Pugh: grade A); read-out: geometric mean of AUC0-∞
measurement_type: AUC(0-inf) (ng·h/mL)
# value in ng·h/mL; strip the unit string

I have this compound here, "CC1=NN(c2ccc3c(c2)CCCC3)C(=O)/C1=N\Nc1cccc(-c2ccc(C(=O)O)o2)c1O" , and I need its recorded AUC(0-inf).
1120

----------
assay_info: Single-dose, open-label pharmacokinetics of herombopag in subjects with normal liver function, mild and moderate hepatic impairments
Format: in vivo, human
condition_notes: human, plasma, po, 7.5 mg, single 7.5 mg oral dose, empty stomach; moderate hepatic impairments (Child-Pugh: grade B); read-out: geometric mean of AUC0-t
measurement_type: AUC(0-t) (ng·h/mL)
# value in ng·h/mL; strip the unit string

I have this compound here, "CC1=NN(c2ccc3c(c2)CCCC3)C(=O)/C1=N\Nc1cccc(-c2ccc(C(=O)O)o2)c1O" , and I need its recorded AUC(0-t).
1580

----------
assay_info: Single-dose, open-label pharmacokinetics of herombopag in subjects with normal liver function, mild and moderate hepatic impairments
Assay type: in vivo, human
condition_notes: human, plasma, po, 7.5 mg, single 7.5 mg oral dose, empty stomach; mild hepatic impairments (Child-Pugh: grade A); read-out: geometric mean of AUC0-t
measurement_type: AUC(0-t)

I have this molecule here, "CC1=NN(c2ccc3c(c2)CCCC3)C(=O)/C1=N\Nc1cccc(-c2ccc(C(=O)O)o2)c1O" , and I need its recorded AUC(0-t).
1060 ng·h/mL

----------
assay_info: Single-dose, open-label pharmacokinetics of herombopag in subjects with normal liver function, mild and moderate hepatic impairments
Format: in vivo, human
condition_notes: human, plasma, po, 7.5 mg, single 7.5 mg oral dose, empty stomach; normal liver function; read-out: geometric mean of AUC0-t
measurement_type: AUC(0-t) (ng·h/mL)
# value in ng·h/mL; strip the unit string

I have this compound here, "CC1=NN(c2ccc3c(c2)CCCC3)C(=O)/C1=N\Nc1cccc(-c2ccc(C(=O)O)o2)c1O" , and I need its recorded AUC(0-t).
874

----------
assay_info: Single-dose, open-label pharmacokinetics of herombopag in subjects with normal liver function, mild and moderate hepatic impairments
Format: in vivo, human
condition_notes: human, plasma, po, 7.5 mg, single 7.5 mg oral dose, fasted; moderate hepatic impairment (n = 8); GeoMean (% CVb); read-out: Cmax
measurement_type: Cmax (ng/mL)
# value in ng/mL; strip the unit string

I have this compound here, "CC1=NN(c2ccc3c(c2)CCCC3)C(=O)/C1=N\Nc1cccc(-c2ccc(C(=O)O)o2)c1O" , and I need its recorded Cmax.
82.8
